The reported numbers originate from patent US10254297B2.

- Tested on: antibody raised against Immunogen 2 (Example 9), Tracer 1
- EXPERIMENTAL_DETAILS: Competitive assay (ELISA) for cross-reactivity measurement
- Assay type: binding, sheep
- TEST_CONDITIONS: Table 1 and FIGS. 5 to 7; antibody of the invention
EXPERIMENTAL_READOUT: Antibody binding, in words

> print(dat)
                                   molecule                           target.of.assay        experimental.readout    measurement
1  CNC1(c2ccccc2Cl)CCCCC1=O (centres unmarked)  antibody raised against Immunogen 2 (Example 9), Tracer 1  Antibody binding, in words  does not bind
2              c1ccc(C2(N3CCCCC3)CCCCC2)cc1  antibody raised against Immunogen 2 (Example 9), Tracer 1  Antibody binding, in words  does not bind
3  COc1cccc(C2(O)CCCCC2CN(C)C)c1 (centres unmarked)  antibody raised against Immunogen 2 (Example 9), Tracer 1  Antibody binding, in words  does not bind
